test system: Pseudomonas aeruginosa; assay: Inhibition of protease in logarithmic growth phase Pseudomonas aeruginosa PAO1 assessed as inhibition rate at 102.4 microg/ml measured after 32 hrs; conditions: dose 102.4 µg/ml
Calls of active or inactive are those of the source. No cut-off for these calls is given here.
PROPERTY_MEASURED: inhibition

Some compounds with recorded inhibition:
{"STRUCTURE_SMILES": "CCCCCCCCCCC(=O)N/N=c1\\sc2ccccc2n1C", "PROPERTY_MEASURED": "inhibition", "RESULT": "> 20%"}
{"STRUCTURE_SMILES": "Cn1/c(=N/NC(=O)c2cccc(Cl)c2)sc2ccccc21", "PROPERTY_MEASURED": "inhibition", "RESULT": "> 20%"}
{"STRUCTURE_SMILES": "O=C(CCCCOc1ccc(F)cc1)NNc1nc2ccc(Cl)cc2o1", "PROPERTY_MEASURED": "inhibition", "RESULT": "inactive"}
{"STRUCTURE_SMILES": "O=C(CCCOc1ccc(C(F)(F)F)cc1)NNc1nc2ccccc2o1", "PROPERTY_MEASURED": "inhibition", "RESULT": "30%"}
{"STRUCTURE_SMILES": "O=C(CCCCOc1ccc(Cl)cc1)NNc1nc2ccccc2o1", "PROPERTY_MEASURED": "inhibition", "RESULT": "inactive"}

Report inhibition under test system Pseudomonas aeruginosa for O=C(COc1ccc(Cl)cc1)NNc1nc2ccccc2o1 .
10%

---

tested on: Erythrocyte; assay: Hemolytic activity in mouse RBC isolated from eye ball assessed as hemolysis at 256 microg/ml incubated for 1 hr; format: toxicity, cell-based; details: dose 256 µg/ml
PROPERTY_MEASURED: Activity

{"STRUCTURE_SMILES": "O=C(CCCCOc1cccc(F)c1)NNc1nc2ccccc2o1", "PROPERTY_MEASURED": "Activity", "RESULT": "Non-Toxic"}
{"STRUCTURE_SMILES": "O=C(NNc1nc2ccccc2s1)c1ccccc1F", "PROPERTY_MEASURED": "Activity", "RESULT": "Non-Toxic"}
{"STRUCTURE_SMILES": "Cc1ccc(C(=O)NNc2nc3ccccc3s2)cc1", "PROPERTY_MEASURED": "Activity", "RESULT": "Non-Toxic"}
{"STRUCTURE_SMILES": "COc1ccc(OCCCCC(=O)NNc2nc3ccccc3o2)cc1", "PROPERTY_MEASURED": "Activity", "RESULT": "Non-Toxic"}
{"STRUCTURE_SMILES": "O=C(COc1ccc(F)cc1)NNc1nc2ccccc2o1", "PROPERTY_MEASURED": "Activity", "RESULT": "Non-Toxic"}
{"STRUCTURE_SMILES": "CCCCCCCCCCC(=O)N/N=c1\\sc2ccccc2n1C", "PROPERTY_MEASURED": "Activity", "RESULT": "Non-Toxic"}

Report Activity under test system Erythrocyte for O=C(CCCCOc1ccc(Cl)cc1)NNc1nc2ccccc2o1 .
Non-Toxic

Report Activity under test system Erythrocyte for O=C(CCCOc1ccc(C(F)(F)F)cc1)NNc1nc2ccccc2o1 .
Non-Toxic

Report Activity under test system Erythrocyte for O=C(CCCCOc1ccc(F)cc1)NNc1nc2ccccc2o1 .
Non-Toxic

---

system: Pseudomonas aeruginosa; experiment: Antibiofilm activity against logarithmic growth phase Pseudomonas aeruginosa PAO1 assessed as inhibition of biofilm formation at 32 microg/ml incubated for 20 hrs by crystal violet staining based analysis; type: functional
PROPERTY_MEASURED: inhibition at 32 µg/mL

Some molecules with recorded inhibition at 32 µg/mL:
{"STRUCTURE_SMILES": "O=C(CCCCOc1ccc(Cl)cc1)NNc1nc2ccccc2o1", "inhibition at 32 µg/mL": "> 25.4%"}
{"STRUCTURE_SMILES": "O=C(CCCCOc1cccc(F)c1)NNc1nc2ccccc2o1", "inhibition at 32 µg/mL": "> 25.4%"}
{"STRUCTURE_SMILES": "O=C(COc1ccc(F)cc1)NNc1nc2ccccc2o1", "inhibition at 32 µg/mL": "> 76.6%"}
{"STRUCTURE_SMILES": "O=C(CCCCOc1ccc(Cl)cc1)NNc1nc2ccc(Cl)cc2o1", "inhibition at 32 µg/mL": "> 25.4%"}

Return inhibition at 32 µg/mL for the following molecule: O=C(CCCOc1ccc(C(F)(F)F)cc1)NNc1nc2ccccc2o1
> 25.4%

Return inhibition at 32 µg/mL for the following molecule: O=C(CCCCOc1ccc(Cl)cc1)NNc1nc2ccccc2s1
> 25.4%
